System: OE21 (Esophageal Squamous Cell Carcinoma)
experimentalDetails: Bliss excess, mean over the matrix (fraction); higher = more synergy;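 note: after 72 h of two-drug dosing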
measurementLabel: Bliss excess

1) NC1(C(=O)N[C@@H](CCO)c2ccc(Cl)cc2)CCN(c2ncnc3[nH]ccc23)CC1 [Capivasertib] + CC(=O)c1c(C)c2cnc(Nc3ccc(N4CCNCC4)cn3)nc2n(C2CCCC2)c1=O [Palbociclib] (first compound max 10 µM, 7x7, partner max 10 µM) :: 0.0379
2) CC1(C)CCC(CN2CCN(c3ccc(C(=O)NS(=O)(=O)c4ccc(NCC5CCOCC5)c([N+](=O)[O-])c4)c(Oc4cnc5[nH]ccc5c4)c3)CC2)=C(c2ccc(Cl)cc2)C1 [Venetoclax] + C[C@@H](Nc1cc(F)cc(F)c1)c1cc(C(=O)N(C)C)cc2c(=O)cc(N3CCOCC3)oc12 [AZD8186] (first compound max 1 µM, 7x7, partner max 3 µM) :: -0.0166
3) C[C@@H](c1ccc2nccn2c1)n1nnc2ncc(-c3cnn(C)c3)nc21 [Savolitinib] + CN(CC[C@H](CSC1=CC=CC=C1)NC2=C(C=C(C=C2)S(=O)(=O)NC(=O)C3=CC=C(C=C3)N4CCC(CC4)[C@H](C5=CC=CC=C5C6=CC=C(C=C6)Cl)O)S(=O)(=O)C(F)(F)F)CCO [AZD4320] (first compound max 1 µM, 7x7, partner max 1 µM) :: -0.043
4) Cc1c2c(nn1C)CSCc1cc(n(C)n1)CSc1cc(c3ccccc3c1)OCCCc1c(C(=O)O)n(C)c3c-2c(Cl)ccc13 [AZD5991] + CCN(CCO)CCCOc1ccc2c(Nc3cc(CC(=O)Nc4cccc(F)c4)[nH]n3)ncnc2c1 [AZD2811] (first compound max 1 µM, 7x7, partner max 1 µM) :: 0.0345

---

System: SAS (Oral Cavity Carcinoma)
experimentalDetails: Bliss excess, mean over the matrix (fraction); higher = more synergy
# Bliss excess per record follows
measurementLabel: Bliss excess

1) COc1cccc(OCCCN)c1-c1cc(Nc2cnc(C#N)cn2)n[nH]1 [Prexasertib] + Cc1cc2ncnn2cc1Nc1ncc2c(n1)n(C1CCOCC1)c(=O)n2C [AZD7648] (first compound max 1 µM, 7x7, partner max 10 µM) :: -0.0247
2) COc1cccc(OCCCN)c1-c1cc(Nc2cnc(C#N)cn2)n[nH]1 [Prexasertib] + O=C(c1cc(Cc2n[nH]c(=O)c3ccccc23)ccc1F)N1CCN(C(=O)C2CC2)CC1 [Olaparib] (first compound max 1 µM, 7x7, partner max 10 µM) :: -0.0104
3) CC1(C)CCC(CN2CCN(c3ccc(C(=O)NS(=O)(=O)c4ccc(NCC5CCOCC5)c([N+](=O)[O-])c4)c(Oc4cnc5[nH]ccc5c4)c3)CC2)=C(c2ccc(Cl)cc2)C1 [Venetoclax] + C1CN(CCC1(C(=O)N[C@@H](CCO)C2=CC=C(C=C2)Cl)N)C3=NC=NC4=C3C=CN4 [Capivasertib] (first compound max 1 µM, 7x7, partner max 3 µM) :: 0.0016

---

Tested on: NUGC-4 (Gastric Carcinoma)
experimentalDetails: Bliss excess, mean over the matrix (fraction); higher = more synergy
Could you label it label 1 if measured Bliss excess is -0.007 or higher, and label 0 otherwise?

1. CN(C)CCCOc1ccc(-c2ccc3ncc4c(c3c2)n(C2CCOCC2)c(=O)n4C)cn1 [AZD0156] + C=CCn1c(=O)c2cnc(Nc3ccc(N4CCN(C)CC4)cc3)nc2n1-c1cccc(C(C)(C)O)n1 [AZD1775] (first compound max 1 µM, partner max 1 µM) :: label 0
2. Cn1cnc2c(F)c(Nc3ccc(Br)cc3Cl)c(C(=O)NOCCO)cc21 [Selumetinib] + CC(C)n1c(=O)n(C)c2cnc3cc(F)c(-c4ccc(OCCCN5CCCCC5)nc4)cc3c21 [AZD1390] (first compound max 10 µM, 7x7, partner max 0.3 µM) :: label 1
3. COc1cccc2c1C(=O)c1c(O)c3c(c(O)c1C2=O)C[C@@](O)(C(=O)CO)C[C@@H]3O[C@H]1C[C@H](N)[C@H](O)[C@H](C)O1 [Doxorubicin] + Cc1cc2ncnn2cc1Nc1ncc2c(n1)n(C1CCOCC1)c(=O)n2C [AZD7648] (first compound max 1 µM, 7x7, partner max 10 µM) :: label 1
4. CC(=O)c1c(C)c2cnc(Nc3ccc(N4CCNCC4)cn3)nc2n(C2CCCC2)c1=O [Palbociclib] + CN(CC[C@H](CSC1=CC=CC=C1)NC2=C(C=C(C=C2)S(=O)(=O)NC(=O)C3=CC=C(C=C3)N4CCC(CC4)[C@H](C5=CC=CC=C5C6=CC=C(C=C6)Cl)O)S(=O)(=O)C(F)(F)F)CCO [AZD4320] (first compound max 10 µM, 7x7, partner max 1 µM) :: label 1
5. COc1cc2c(cc1OCCCCCOc1cc3c(cc1OC)C(=O)N1C=C(C)C[C@H]1C=N3)N=C[C@@H]1CC(C)=CN1C2=O [SG3199] + O=C(c1cc(Cc2n[nH]c(=O)c3ccccc23)ccc1F)N1CCN(C(=O)C2CC2)CC1 [Olaparib] (first compound max 0.001 µM, 7x7, partner max 10 µM) :: label 0
